TARGET_SYSTEM: T1, Bovine, dephosphorylated, Myelin Basic Protein (MBP), P02687
T1 chain: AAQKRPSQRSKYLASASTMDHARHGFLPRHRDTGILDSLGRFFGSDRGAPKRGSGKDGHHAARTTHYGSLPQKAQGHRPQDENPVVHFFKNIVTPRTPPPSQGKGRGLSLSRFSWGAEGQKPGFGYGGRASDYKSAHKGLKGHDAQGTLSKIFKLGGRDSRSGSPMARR

PROTEIN: MAPK8(JNK1) (protein) MSRSKRDNNFYSVEIGDSTFTVLKRYQNLKPIGSGAQGIVCAAYDAILERNVAIKKLSRPFQNQTHAKRAYRELVLMKCVNHKNIIGLLNVFTPQKSLEEFQDVYIVMELMDANLCQVIQMELDHERMSYLLYQMLCGIKHLHSAGIIHRDLKPSNIVVKSDCTLKILDFGLARTAGTSFMMTPYVVTRYYRAPEVILGMGYKENVDLWSVGCIMGEMVCHKILFPGRDYIDQWNKVIEQLGTPCPEFMKKLQPTVRTYVENRPKYAGYSFEKLFPDVLFPADSEHNKLKASQARDLLSKMLVIDASKRISVDEALQHPYINVWYDPSEAEAPPPKIPDKQLDEREHTIEEWKELIYKEVMDLEERTKNGVIRGQPSPLAQVQQ
MBP Kinase Activity: Negative
--
PROTEIN: MAP2K6(MKK6) (protein) MSQSKGKKRNPGLKIPKEAFEQPQTSSTPPRDLDSKACISIGNQNFEVKADDLEPIMELGRGAYGVVEKMRHVPSGQIMAVKRIRATVNSQEQKRLLMDLDISMRTVDCPFTVTFYGALFREGDVWICMELMDTSLDKFYKQVIDKGQTIPEDILGKIAVSIVKALEHLHSKLSVIHRDVKPSNVLINALGQVKMCDFGISGYLVDSVAKTIDAGCKPYMAPERINPELNQKGYSVKSDIWSLGITMIELAILRFPYDSWGTPFQQLKQVVEEPSPQLPADKFSAEFVDFTSQCLKKNSKERPTYPELMQHPFFTLHESKGTDVASFVKLILGD
MBP Kinase Activity: Weak
--
PROTEIN: SGK2 (protein) LPDHCYRMNSSPAGTPSPQPSRANGNINLGPSANPNAQPTDFDFLKVIGKGNYGKVLLAKRKSDGAFYAVKVLQKKSILKKKEQSHIMAERSVLLKNVRHPFLVGLRYSFQTPEKLYFVLDYVNGGELFFHLQRERRFLEPRARFYAAEVASAIGYLHSLNIIYRDLKPENILLDCQGHVVLTDFGLCKEGVEPEDTTSTFCGTPEYLAPEVLRKEPYDRAVDWWCLGAVLYEMLHGLPPFYSQDVSQMYENILHQPLQIPGGRTVAACDLLQSLLHKDQRQRLGSKADFLEIKNHVFFSPINWDDLYHKRLTPPFNPNVTGPADLKHFDPEFTQEAVSKSIGCTPDTVASSSGASSAFLGFDYAPEDDDILDC
MBP Kinase Activity: Weak
--
PROTEIN: PLK3 (protein) SGRTYLKGRLLGKGGFARCYEATDTETGSAYAVKVIPQSRVAKPHQREKILNEIELHRDLQHRHIVRFSHHFEDADNIYIFLELCSRKSLAHIWKARHTLLEPEVRYYLRQILSGLKYLHQRGILHRDLKLGNFFITENMELKVGDFGLAARLEPPEQRKKTICGTPNYVAPEVLLRQGHGPEADVWSLGCVMYTLLCGSPPFETADLKETYRCIKQVHYTLPASLSLPARQLLAAILRASPRDRPSIDQILRHDFFTKGYTPDRLPISSCVTVPDLTPPNPA
MBP Kinase Activity: Negative
